- system: human VWF (human)
- Sequence (P04275 whole entry): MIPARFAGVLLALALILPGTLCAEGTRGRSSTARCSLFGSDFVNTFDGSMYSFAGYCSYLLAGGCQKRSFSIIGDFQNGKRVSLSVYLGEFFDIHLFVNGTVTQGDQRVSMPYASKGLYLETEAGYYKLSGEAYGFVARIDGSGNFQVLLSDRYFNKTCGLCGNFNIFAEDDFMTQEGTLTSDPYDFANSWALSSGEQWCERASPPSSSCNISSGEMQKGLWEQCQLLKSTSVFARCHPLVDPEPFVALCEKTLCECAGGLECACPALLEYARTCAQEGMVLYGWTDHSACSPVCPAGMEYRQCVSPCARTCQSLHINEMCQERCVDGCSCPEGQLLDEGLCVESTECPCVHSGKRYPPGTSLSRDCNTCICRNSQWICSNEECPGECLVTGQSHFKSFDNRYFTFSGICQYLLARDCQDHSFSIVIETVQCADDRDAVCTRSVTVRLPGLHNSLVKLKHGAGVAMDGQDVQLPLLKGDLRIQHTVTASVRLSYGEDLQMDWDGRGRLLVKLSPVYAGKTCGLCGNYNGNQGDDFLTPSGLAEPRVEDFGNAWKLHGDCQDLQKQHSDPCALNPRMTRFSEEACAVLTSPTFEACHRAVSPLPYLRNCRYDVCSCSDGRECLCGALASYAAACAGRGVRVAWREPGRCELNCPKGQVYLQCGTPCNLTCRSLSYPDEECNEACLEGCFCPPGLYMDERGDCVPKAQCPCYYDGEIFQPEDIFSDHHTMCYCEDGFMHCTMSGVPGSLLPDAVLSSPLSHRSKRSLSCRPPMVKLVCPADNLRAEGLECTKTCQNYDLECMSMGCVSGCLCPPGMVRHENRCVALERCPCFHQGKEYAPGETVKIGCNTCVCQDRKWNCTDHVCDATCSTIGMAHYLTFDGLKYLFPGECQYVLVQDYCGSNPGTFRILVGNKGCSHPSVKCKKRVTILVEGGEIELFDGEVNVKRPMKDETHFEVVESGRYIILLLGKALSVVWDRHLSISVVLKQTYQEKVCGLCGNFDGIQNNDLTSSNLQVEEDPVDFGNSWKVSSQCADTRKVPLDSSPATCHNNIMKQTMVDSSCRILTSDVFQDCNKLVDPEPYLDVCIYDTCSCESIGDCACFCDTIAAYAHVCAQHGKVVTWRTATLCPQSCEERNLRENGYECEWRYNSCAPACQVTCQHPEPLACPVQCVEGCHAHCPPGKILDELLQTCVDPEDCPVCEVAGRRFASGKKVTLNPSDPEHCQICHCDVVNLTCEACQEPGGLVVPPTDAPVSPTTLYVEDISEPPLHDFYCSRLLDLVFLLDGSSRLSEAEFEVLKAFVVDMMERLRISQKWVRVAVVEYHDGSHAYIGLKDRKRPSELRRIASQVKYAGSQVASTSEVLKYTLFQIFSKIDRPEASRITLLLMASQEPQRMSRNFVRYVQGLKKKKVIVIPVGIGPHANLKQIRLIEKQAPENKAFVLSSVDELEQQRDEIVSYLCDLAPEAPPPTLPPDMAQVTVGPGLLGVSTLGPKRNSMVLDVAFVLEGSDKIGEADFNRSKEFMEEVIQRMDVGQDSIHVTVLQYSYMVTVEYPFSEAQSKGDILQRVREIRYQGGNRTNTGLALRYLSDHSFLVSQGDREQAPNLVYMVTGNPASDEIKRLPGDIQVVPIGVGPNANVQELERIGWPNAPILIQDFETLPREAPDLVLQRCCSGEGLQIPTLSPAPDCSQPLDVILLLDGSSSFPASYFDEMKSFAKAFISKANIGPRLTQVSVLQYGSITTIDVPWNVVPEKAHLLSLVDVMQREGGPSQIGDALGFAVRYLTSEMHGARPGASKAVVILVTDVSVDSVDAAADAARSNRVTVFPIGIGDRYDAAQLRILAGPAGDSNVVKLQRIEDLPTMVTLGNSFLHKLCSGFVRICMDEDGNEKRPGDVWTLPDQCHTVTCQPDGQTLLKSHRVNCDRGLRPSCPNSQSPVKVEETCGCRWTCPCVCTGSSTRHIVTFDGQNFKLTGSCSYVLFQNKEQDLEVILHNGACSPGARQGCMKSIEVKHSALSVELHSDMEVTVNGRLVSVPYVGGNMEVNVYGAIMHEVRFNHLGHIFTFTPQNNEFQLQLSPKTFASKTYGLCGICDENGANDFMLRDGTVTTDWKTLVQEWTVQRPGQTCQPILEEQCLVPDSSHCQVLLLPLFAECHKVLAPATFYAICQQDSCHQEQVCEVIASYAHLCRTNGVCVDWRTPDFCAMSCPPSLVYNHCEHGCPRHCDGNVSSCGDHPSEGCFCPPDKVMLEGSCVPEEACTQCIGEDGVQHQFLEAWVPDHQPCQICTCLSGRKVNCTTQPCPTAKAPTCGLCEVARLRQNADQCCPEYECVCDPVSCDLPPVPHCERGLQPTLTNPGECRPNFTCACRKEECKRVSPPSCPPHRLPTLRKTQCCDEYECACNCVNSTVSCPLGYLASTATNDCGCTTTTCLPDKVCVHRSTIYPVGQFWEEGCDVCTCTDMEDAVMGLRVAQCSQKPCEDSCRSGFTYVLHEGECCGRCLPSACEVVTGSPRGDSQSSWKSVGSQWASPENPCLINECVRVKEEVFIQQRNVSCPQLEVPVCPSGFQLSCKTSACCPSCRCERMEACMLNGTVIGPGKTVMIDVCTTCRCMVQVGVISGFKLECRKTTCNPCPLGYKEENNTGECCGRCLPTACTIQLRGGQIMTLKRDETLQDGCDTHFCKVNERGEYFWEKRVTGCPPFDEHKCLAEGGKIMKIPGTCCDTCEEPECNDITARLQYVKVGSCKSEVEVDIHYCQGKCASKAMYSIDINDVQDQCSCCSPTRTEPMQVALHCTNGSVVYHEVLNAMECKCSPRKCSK
- experiment notes: ELISA
Below is a list of entries, each paired with its recorded EC50 value.
// note: answer is a bare numeric in µg/mL

Entry 33D03_H4-L4 (antibody, V domains shown) VH: QVQLVQSGAEVKKPGASVKVSCKASGYTFTDYYLNWVRQAPGQRLEWMGIINPYNGGTNYNQRFKGRVTITVDKSSSTAYMELSSLRSEDTAVYYCASEGLRTWFTYWGQGTLVTVSS VL: DIVMTQSPDSLAVSLGERATISCKSSQSLSNSGNQKIYLAWYQQKPGQPPKLLIYGASSRESGVPDRFSGSGSEIDFTLTISSLQAEDVAVYYCQNDHSHPFTFGQGTKLEIK — recorded EC50 = 0.0365

The recorded EC50 for 33D03_H1-L3 (antibody, V domains shown) VH: QVQLVQSGAEVKKPGASVKVSCKASGYTFTDYYLNWVRQAPGQRLEWMGIINPYNGGTNYSQKFQGRVTITRDTSASTAYMELSSLRSEDTAVYYCASEGLRTWFTYWGQGTLVTVSS VL: DIVMTQSPDSLAVSLGERATINCKSSQSLSNSGNQKIYLAWYQQKPGQPPKLLIYGASSRESGVPDRFSGSGSEIDFTLTISSLQAEDVAVYYCQNDHSHPFTFGQGTKLEIK is 0.0597

The measured EC50 associated with 25B05_H2-L1 (antibody, V domains shown) VH: QVQLVQSGAEVKKPGASVKVSCKASGYTFTDYFMNWVRQAPGQRLEWMGVINPHNGGTSYSQKFQGRVTITVDKSSSTAYMELSSLRSEDTAVYYCARRPLGSDYWGQGTTVTVSS VL: DIQMTQSPSSVSASVGDRVTITCKASQNVGTAVAWYQQKPGKAPKLLIYSASSRYTGVPSRFSGSGSGTDFTLTISSLQPEDFATYYCQQYSSYPLTFGQGTKLEIK reads 0.0612

Per the records, this binder ( 33D03_H1-L1 (antibody, V domains shown) VH: QVQLVQSGAEVKKPGASVKVSCKASGYTFTDYYLNWVRQAPGQRLEWMGIINPYNGGTNYSQKFQGRVTITRDTSASTAYMELSSLRSEDTAVYYCASEGLRTWFTYWGQGTLVTVSS VL: DIVMTQSPDSLAVSLGERATINCKSSQSLSNSGNQKIYLAWYQQKPGQPPKLLIYGASSRESGVPDRFSGSGSGTDFTLTISSLQAEDVAVYYCQNDHSHPFTFGQGTKLEIK ) has EC50 equal to 0.0437

Record 33D03_H2-L4 (antibody, V domains shown) VH: QVQLVQSGAEVKKPGASVKVSCKASGYTFTDYYLNWVRQAPGQRLEWMGIINPYNGGTNYNQRFKGRVTITRDTSASTAYMELSSLRSEDTAVYYCASEGLRTWFTYWGQGTLVTVSS VL: DIVMTQSPDSLAVSLGERATISCKSSQSLSNSGNQKIYLAWYQQKPGQPPKLLIYGASSRESGVPDRFSGSGSEIDFTLTISSLQAEDVAVYYCQNDHSHPFTFGQGTKLEIK . Reported EC50: 0.0381

So, 33D03_H1-L4 (antibody, V domains shown) VH: QVQLVQSGAEVKKPGASVKVSCKASGYTFTDYYLNWVRQAPGQRLEWMGIINPYNGGTNYSQKFQGRVTITRDTSASTAYMELSSLRSEDTAVYYCASEGLRTWFTYWGQGTLVTVSS VL: DIVMTQSPDSLAVSLGERATISCKSSQSLSNSGNQKIYLAWYQQKPGQPPKLLIYGASSRESGVPDRFSGSGSEIDFTLTISSLQAEDVAVYYCQNDHSHPFTFGQGTKLEIK ? Its EC50 was 0.054
